# key: entry, value: IC50
molecular target: human Lck enzyme (Homo sapiens); construct: purchased Carna Biosciences, Inc. 08-170; experiment: Lck enzyme inhibitory activity (time-resolved fluorometry, biotinylated peptide phosphorylation); assay type: biochemical; details: biotinylated peptide phosphorylation, read-out: LCK_IC50
Sequence (P06239 whole entry): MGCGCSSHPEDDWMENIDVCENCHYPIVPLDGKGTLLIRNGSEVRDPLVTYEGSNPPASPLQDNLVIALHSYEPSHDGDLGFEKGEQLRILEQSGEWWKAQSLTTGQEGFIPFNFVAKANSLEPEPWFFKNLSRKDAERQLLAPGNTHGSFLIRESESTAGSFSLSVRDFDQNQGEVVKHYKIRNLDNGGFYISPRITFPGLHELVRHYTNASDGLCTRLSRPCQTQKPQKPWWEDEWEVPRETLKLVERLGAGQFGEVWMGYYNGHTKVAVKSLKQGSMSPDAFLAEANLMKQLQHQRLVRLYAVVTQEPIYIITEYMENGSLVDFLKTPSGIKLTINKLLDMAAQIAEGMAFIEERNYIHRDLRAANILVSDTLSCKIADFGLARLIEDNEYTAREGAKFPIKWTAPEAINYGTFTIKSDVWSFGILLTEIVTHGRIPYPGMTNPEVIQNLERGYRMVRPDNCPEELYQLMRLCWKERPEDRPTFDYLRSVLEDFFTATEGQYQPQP
Answer with a number only, understood to be in nM.

compound: Cc1cc(Oc2ccccc2F)cc(F)c1-n1ncc(C(=O)c2cc3cc(OC(F)F)c(C4CCN(S(=O)(=O)C5CC5)CC4)cc3[nH]2)c1N
target: human Lck enzyme (Homo sapiens)
unitsText: nM
reportedResult: 12
--
compound: Cc1cc(Oc2cccc(F)c2F)cc(F)c1-n1ncc(C(=O)c2cc3cc(NS(C)(=O)=O)c(F)cc3[nH]2)c1N
target: human Lck enzyme (Homo sapiens)
unitsText: nM
reportedResult: 2.1

What does the record list as IC50 for Cc1cc(Oc2ccccc2F)cc(F)c1-n1ncc(C(=O)c2cc3cc(OCC(F)F)c(C4CCN(S(=O)(=O)C5CC5)CC4)cc3[nH]2)c1N ?
9.1
